Tested on: NCI/ADR-RES ovarian
Experiment: NCI tumour cell line growth inhibition, 48 h
Measured Property: GI50

Prompt line: For NCI/ADR-RES ovarian, provide GI50 of `Cc1ccc(C[P+](c2ccccc2)(c2ccccc2)c2ccccc2)cc1` please.
Response line: 37.7 µM

Prompt line: For NCI/ADR-RES ovarian, provide GI50 of `COc1cc2c(cc1OC)-c1c(c3ccc([N+](=O)[O-])cc3c(=O)n1CCCN)C2=O` please.
Response line: 0.342 µM

Prompt line: For NCI/ADR-RES ovarian, provide GI50 of `COc1cc2c3c(n(CCCNCCNCCCN)c(=O)c2cc1OC)-c1cc2c(cc1C3=O)OCO2` please.
Response line: 21.1 µM

Prompt line: For NCI/ADR-RES ovarian, provide GI50 of `COc1ccc(-c2cc(-c3nnc(SCC(=O)Nc4ccc(C(C)=O)cc4)o3)c3ccccc3n2)cc1` please.
Response line: > 100 µM

Prompt line: For NCI/ADR-RES ovarian, provide GI50 of `Cc1cc2nc3c4cccc(O)c4n(CCN(C)C)c3nc2cc1C` please.
Response line: 1.97 µM
